# testDescription: in vitro
# experimentalContext: bmg-1 cells, cell survival, 100µM, no irradiation
experimentalReadout: viability at 100 µM (%)

>>> df
                                   molecule  unitspec  measurednumber
0  CCOc1ccc(-c2nc3ccc(-c4nc5ccc(N6CCN(C)CC6)cc5[nH]4)cc3[nH]2)cc1 [Hoechst 33342, reference compound]         %              10

* * *

# testDescription: in vitro
# experimentalContext: bmg-1 cells, surviving fraction, 10µM, no irradiation
experimentalReadout: viability at 10 µM (%)

>>> print(df.to_string())
                                   compound  measurednumber
0  CCOc1ccc(-c2nc3ccc(-c4nc5ccc(N6CCN(C)CC6)cc5[nH]4)cc3[nH]2)cc1 [Hoechst 33342, reference compound]              45
